Data provenance: the supplement of paper PMC9170038

Test system: MS2 coat protein
Assay: apparent KD of MS2 coat protein; designed switch direction (-1 OFF switch, 1 ON switch): -1; higher = weaker reporter binding
Conditions: input ligand: FMN 200 uM
metric: apparent KD of MS2 coat protein (nM)

>>> value_reported("UAUGUUUUAGGAUAUUGUACUGCUGACAUGAGGAUCACCCAUGUAUGCUAACUCGGCCGUCGAGAAGGAGAAUAUG [BotMod 30 - Jieux - Exclusion 5] (Eterna round: R97, puzzle: Exclusion 5)")
43.6
>>> value_reported("GCACGGAUGGUAGGAUAUCUGUGCGAUUAGCUCAGAGAAGGACCACAUGAGGAUCACCCAUGUACCUCAAUUAGCUUUCCGUGC [Eli exng1 - 020] (Eterna round: R96, puzzle: Exclusion NG 1)")
40.7
>>> value_reported("GUCAGACGAGGAUAUGAUAAUUAAUACAUGAGGAUCACCCAUGUAAUACUGAUCCAUGGAUCAGAAGGCGUCUGAC [E5/4-A4] (Eterna round: R97, puzzle: Exclusion 5)")
42.7
>>> value_reported("UUUAUAAUAAGAUCAAUUAAUUAACAUGAGGAUCACCCAUGUGAGGAUAUCAGCUCGUUUAGAGCUGAGAAGGCACAAUAUAAG [ExNG3/17-B2] (Eterna round: R96, puzzle: Exclusion NG 3)")
62.2
>>> value_reported("CUUGUUUAUGUAGGAUAUGCCUGGCGUGCCUUUGCAGAAGGACAUGAGGAUCACCCAUGUAUUGCGGUCUGCGUUCAGAUCGCA [salish99_ExNG1_r4_045] (Eterna round: R96, puzzle: Exclusion NG 1)")
34.6
